# Test system: SETVI
# EXPERIMENT: Pre-emergence herbicidal action against SETVI
# Assay type: in vivo, Setaria viridis
# EXPERIMENTAL_PARAMETERS: dosage 80 g/ha
REPORTED_METRIC: Pre-emergence action against SETVI in % (%)
Only the number, expressed in %, is required.

>>> result("Cc1nnc(NC(=O)c2ccc(C(F)(F)F)c(C(=O)NCC3CC3)c2Br)o1")
100
>>> result("Cn1nnnc1NC(=O)c1ccc(Br)c(C(=O)NCC2CC2)c1Cl")
90
>>> result("CCn1nnnc1NC(=O)c1ccc(C(F)(F)F)c(C(=O)NCC(F)(F)F)c1C")
100
>>> result("CCn1nnnc1NC(=O)c1ccc(C(F)F)c(C(=O)NC)c1SC")
100
>>> result("CCc1c(C(=O)Nc2nnnn2CC)ccc(C(F)(F)F)c1C(=O)NC1CC1")
90
>>> result("Cc1nnc(NC(=O)c2ccc(C(F)F)c(C(=O)NC(C)C3CC3)c2C)o1 (stereo not drawn)")
80
>>> result("CCn1nnnc1NC(=O)c1ccc(C(F)F)c(C(=O)NCC2CC2)c1Br")
90
>>> result("CCc1c(C(=O)Nc2nnnn2CC)ccc(C(F)(F)F)c1C(=O)NC")
100
>>> result("CCn1nnnc1NC(=O)c1ccc(C(F)(F)F)c(C(=O)NC(C)C2CC2)c1SC (stereo not drawn)")
100
>>> result("CCn1nnnc1NC(=O)c1ccc(C(F)(F)F)c(C(=O)NCC(F)F)c1Cl")
100

Prompt: Find the measured Pre-emergence action against SETVI in % of CSc1c(C(=O)Nc2nnnn2C)ccc(C(F)F)c1C(=O)NC(C)C1CC1 (stereo not drawn) and report it.
Completion: 100

Prompt: Provide Pre-emergence action against SETVI in % value for the following compound: Cc1nnc(NC(=O)c2ccc(C(F)(F)F)c(C(=O)NCC3CC3)c2C2CC2)o1
Completion: 80

Prompt: Input CCNC(=O)c1c(C(F)F)ccc(C(=O)Nc2nnco2)c1SC , output reported Pre-emergence action against SETVI in %.
Completion: 100

Prompt: Quickly give me recorded Pre-emergence action against SETVI in % for CCc1c(C(=O)Nc2nnnn2C)ccc(C(F)(F)F)c1C(=O)NC(C)C1CC1 (stereo not drawn)
Completion: 100

Prompt: Please indicate Pre-emergence action against SETVI in % recorded for CCn1nnnc1NC(=O)c1ccc(C(F)F)c(C(=O)NC)c1OC
Completion: 100

Prompt: Supply reported Pre-emergence action against SETVI in % belonging to this compound: CCNC(=O)c1c(C(F)(F)F)ccc(C(=O)Nc2nnc(C)o2)c1CC
Completion: 100

Prompt: Indicate its recorded Pre-emergence action against SETVI in %; the compound in question is CCNC(=O)c1c(C(F)F)ccc(C(=O)Nc2nnco2)c1Cl
Completion: 100

Prompt: Answer with the recorded Pre-emergence action against SETVI in % of CCn1nnnc1NC(=O)c1ccc(C(F)(F)F)c(C(=O)NCC2CC2)c1Br only.
Completion: 100

---

# Tested on: ALOMY
# EXPERIMENT: Pre-emergence herbicidal action against ALOMY
# Assay type: in vivo, Alopecurus myosuroides
# EXPERIMENTAL_PARAMETERS: 80 g/ha, pre-emergence, scored visually after 3 weeks vs untreated controls (100% = plants have died, 0% = like control plants)
REPORTED_METRIC: Pre-emergence action against ALOMY (herbicidal activity) (%)
Numbers only; they are read as %.

Reference set (4 entries):
>>> result("Cc1c(C(=O)Nc2nnnn2C)ccc(C(F)F)c1C(=O)NCC(F)F [Example 1-49]")
80
>>> result("CCn1nnnc1NC(=O)c1ccc(I)c(C(=O)NC)c1Cl [Example 2-195]")
100
>>> result("Cc1c(C(=O)Nc2nnnn2C)ccc(C(F)(F)F)c1C(=O)NCC(F)F [Example 1-30]")
80
>>> result("Cc1nnc(NC(=O)c2ccc(C(F)F)c(C(=O)NC(C)C3CC3)c2C)o1 (centres unmarked) [Example 6-258]")
90

Please turn your attention to the following entry.
Prompt: Tell us which Pre-emergence action against ALOMY (herbicidal activity) value is on record for CCNC(=O)c1c(C(F)(F)F)ccc(C(=O)Nc2nnnn2CC)c1CC [Example 2-272]
Completion: 90
